- Test system: Wolbachia pipientis
- protocol details: Anti-Wolbachia Cell-Based Screen
- Type: functional
- Design: scale not given: in the data most compounds retested in dose-response had high values
- assay setup: 5 µM
The campaign covered roughly 48,000 compounds. About 13,000 (27%) showed an effect of 50% or more. This is one part of the list.
quantity measured: Percent Effect (%)
// note: answer is a bare numeric in %

Query: Can you share its Percent Effect? I mean this compound: CC(C)(C)OCC1CN(Cc2cccs2)S(=O)(=O)c2cnccc2O1 (stereo unspecified)
Response: 118.6

Query: Can you share its Percent Effect? I mean this compound: `Cc1csc2c(C3CCN(C(=O)Cn4cncn4)CC3)nc(C)n12`
Response: 67.21

Query: Can you share its Percent Effect? I mean this compound: `O=C1N(c2cccc(F)c2)Cc2nc(=O)[nH]n21`
Response: -10.2

Query: Can you share its Percent Effect? I mean this compound: COc1ccc(C)cc1CN(Cc1nc(C)c(C)o1)C1CCN(C)C1 (stereo unspecified)
Response: -12.97

Query: Can you share its Percent Effect? I mean this compound: `COCCO[C@@H]1CCN(Cc2csc(C)n2)[C@H]1Cc1ccccc1.O=C(O)C(F)(F)F`
Response: -4.722

Query: Can you share its Percent Effect? I mean this compound: O=C1C(N2CCN(c3ccccc3Cl)CC2)CCN1C1CCOCC1 (stereo unspecified)
Response: -17.41

Query: Can you share its Percent Effect? I mean this compound: `Cc1cc(-c2nc(-c3cccc(CN4CCOCC4)c3)no2)no1`
Response: -11.24

Query: Can you share its Percent Effect? I mean this compound: `COc1ccc(Cl)cc1C(=O)N(C)Cc1cc(C)on1`
Response: -1.731

Query: Can you share its Percent Effect? I mean this compound: CCOCC1CN(S(C)(=O)=O)Cc2nn(C)cc21 (stereo unspecified)
Response: -37.27

Query: Can you share its Percent Effect? I mean this compound: `CS(=O)(=O)NCc1cc2n(n1)CCCN(Cc1cc3ccccc3o1)C2`
Response: 0.8182

Query: Can you share its Percent Effect? I mean this compound: O=C(NCCCn1cccn1)C1CCC(=O)N(Cc2ccccc2F)C1 (stereo unspecified)
Response: -2.925

Query: Can you share its Percent Effect? I mean this compound: CC1CCN(C(=O)CCN2Cc3ccccc3C[C@H]2C(N)=O)C1 (stereo partly specified)
Response: -2.608

Query: Can you share its Percent Effect? I mean this compound: `CO[C@@H]1CCN(Cc2cccs2)[C@H]1Cc1ccncc1`
Response: 4.278

Query: Can you share its Percent Effect? I mean this compound: CC(CCN1CCCn2nc(CNS(C)(=O)=O)cc2C1)c1ccccc1 (stereo unspecified)
Response: 111.7

Query: Can you share its Percent Effect? I mean this compound: `NC(=O)[C@@H]1Cc2ccccc2CN1CCC(=O)N1CCOCC1`
Response: 8.62

Query: Can you share its Percent Effect? I mean this compound: CCc1cccc(OCC(=O)N2CCCC(n3cncn3)C2)c1 (stereo unspecified)
Response: 9.617

Query: Can you share its Percent Effect? I mean this compound: O=C(c1cccc(CN2CCCC2)c1)N1CCCC(n2cncn2)C1 (stereo unspecified)
Response: -4.839

Query: Can you share its Percent Effect? I mean this compound: `O=C(O)C(F)(F)F.O=C1COC2(CCN(c3cccc(F)c3)CC2)CN1Cc1ccccn1`
Response: -8.645

Query: Can you share its Percent Effect? I mean this compound: CCCOc1cccc(C(=O)N2CCCC(n3cncn3)C2)c1 (stereo unspecified)
Response: 99.87

Query: Can you share its Percent Effect? I mean this compound: `CCN(Cc1ccco1)C(=O)Nc1cc(C(F)(F)F)c[nH]c1=O`
Response: 8.276

Query: Can you share its Percent Effect? I mean this compound: Cc1cccc(OC(C)C(=O)NCC2(N(C)C)CCCC2)c1 (stereo unspecified)
Response: 4.772

Query: Can you share its Percent Effect? I mean this compound: `Cc1cccc(CN2CC3(CCN(S(=O)(=O)C4CC4)CC3)OCC2=O)n1.O=C(O)C(F)(F)F`
Response: 102.5

Query: Can you share its Percent Effect? I mean this compound: CS(=O)(=O)Cc1cccc(C(=O)N2CCCC(n3cccn3)C2)c1 (stereo unspecified)
Response: 7.401

Query: Can you share its Percent Effect? I mean this compound: Cl.O=C(NCC1CCC2(CCNCC2)CO1)c1cnccn1 (stereo unspecified)
Response: 3.528

Query: Can you share its Percent Effect? I mean this compound: O=C(NCC1CCCO1)c1coc(Cn2cnc3ccccc32)n1 (stereo unspecified)
Response: 1.583

Query: Can you share its Percent Effect? I mean this compound: Cc1nn(C)c2ncnc(N(C)CC3CCN(CC(C)C)C3)c12 (stereo unspecified)
Response: -20.38

Query: Can you share its Percent Effect? I mean this compound: COCc1cc(O)nc(C2CCCN(Cc3ccc(F)cc3)C2)n1 (stereo unspecified)
Response: 105.5

Query: Can you share its Percent Effect? I mean this compound: COC(=O)c1cccc(C(=O)N2CCCC(n3cncn3)C2)c1 (stereo unspecified)
Response: 108.5

Query: Can you share its Percent Effect? I mean this compound: `NC(=O)[C@@H]1Cc2ccccc2CN1S(=O)(=O)N1CCCCC1`
Response: 78.36

Query: Can you share its Percent Effect? I mean this compound: NC(=O)C1CCCN1c1cc(N2CCc3ccccc3C2)ncn1 (stereo unspecified)
Response: -10.01

Query: Can you share its Percent Effect? I mean this compound: CC(=O)Nc1ccc(CNC2COc3c2ccc(C)c3C)cc1 (stereo unspecified)
Response: -7.711

Query: Can you share its Percent Effect? I mean this compound: O=C(O)C(F)(F)F.O=C(c1cccc(O)c1)N1CCC2(CCN2c2ncccn2)C1 (stereo unspecified)
Response: 103.8

Query: Can you share its Percent Effect? I mean this compound: `CCS(=O)(=O)N1CCC2(CC1)CN(Cc1ccccn1)C(=O)CO2.O=C(O)C(F)(F)F`
Response: -5.616

Query: Can you share its Percent Effect? I mean this compound: O=C(NCC1CCCO1)c1cc(-c2cccnc2)c2cnccc2n1 (stereo unspecified)
Response: 70.74

Query: Can you share its Percent Effect? I mean this compound: O=C(c1ccc(C2CCCO2)s1)N1Cc2ccccc2C1 (stereo unspecified)
Response: -6.563

Query: Can you share its Percent Effect? I mean this compound: `Cc1ccccc1OCCN(C)Cc1noc(CC(C)C)n1`
Response: -23.34

Query: Can you share its Percent Effect? I mean this compound: `CC1CCN(S(=O)(=O)N2C[C@H](c3ccccc3)[C@@H](N)C2)CC1`
Response: -3.535

Query: Can you share its Percent Effect? I mean this compound: CC(O)CN1CCc2[nH]nc(C(c3ccccc3)c3ccccc3)c2C1 (stereo unspecified)
Response: 0.8234

Query: Can you share its Percent Effect? I mean this compound: CN(C)Cc1cccc(C(=O)N2CCCC(n3cncn3)C2)c1 (stereo unspecified)
Response: 139.2

Query: Can you share its Percent Effect? I mean this compound: `Brc1cccc(-c2noc(CN3CCOCC3)n2)c1`
Response: 107.1

Query: Can you share its Percent Effect? I mean this compound: O=C(C1CCOc2ccccc2C1)N1Cc2cnn(CCO)c2C1 (stereo unspecified)
Response: -2.46

Query: Can you share its Percent Effect? I mean this compound: `NC(=O)[C@@H]1Cc2ccccc2CN1CCc1cccs1`
Response: -22.09

Query: Can you share its Percent Effect? I mean this compound: `OCc1ccncc1NCc1cnc(-c2ccccn2)s1`
Response: -4.749

Query: Can you share its Percent Effect? I mean this compound: `CS(=O)(=O)N1CCC(NCC2(N3CCOCC3)CCCCC2)CC1`
Response: -12.17

Query: Can you share its Percent Effect? I mean this compound: Cl.O=C(NCC1CCCO1)c1cc(-c2ccncc2)c2cnccc2n1 (stereo unspecified)
Response: 81.36

Query: Can you share its Percent Effect? I mean this compound: CC(=O)c1c[nH]c(C(=O)N2CCN(C(C(N)=O)c3ccccc3)CC2)c1 (stereo unspecified)
Response: -4.109

The measurements presented in this section are drawn from ChEMBL document CHEMBL3988442.
